unfolding enthalpy (calorimetric) for assorted variants
B1: Lysozyme C, P61626 (parent)
chain: MKALIVLGLVLLSVTVQGKVFERCELARTLKRLGMDGYRGISLANWMCLAKWESGYNTRATNYNAGDRSTDYGIFQINSRYWCNDGKTPGAVNACHLSCSALLQDNIADAVACAKRVVRDPQGIRAWVAWRNRCQNRDVRQYVQGCGV

variants of: B1; conditions: Homo sapiens; pH 2.7; Thermal; DSC; glycine 0.05 M; reversible: yes; structure 1LZ1; whole UniProt chain shown
Provide only the numeric value, understood in kcal/mol.

// below: answered variants
| changes | unfolding enthalpy (calorimetric) (kcal/mol) |
| --- | --- |
| I77V | 110 |
| I124V | 109 |

Would you kindly share the measured unfolding enthalpy (calorimetric) for I41V ? 112

Entry to check: I107V 116

Entry to check: I74V 114
